# TEST SYSTEM: UniProt:Q8NB16
# Sequence (Q8NB16 whole entry): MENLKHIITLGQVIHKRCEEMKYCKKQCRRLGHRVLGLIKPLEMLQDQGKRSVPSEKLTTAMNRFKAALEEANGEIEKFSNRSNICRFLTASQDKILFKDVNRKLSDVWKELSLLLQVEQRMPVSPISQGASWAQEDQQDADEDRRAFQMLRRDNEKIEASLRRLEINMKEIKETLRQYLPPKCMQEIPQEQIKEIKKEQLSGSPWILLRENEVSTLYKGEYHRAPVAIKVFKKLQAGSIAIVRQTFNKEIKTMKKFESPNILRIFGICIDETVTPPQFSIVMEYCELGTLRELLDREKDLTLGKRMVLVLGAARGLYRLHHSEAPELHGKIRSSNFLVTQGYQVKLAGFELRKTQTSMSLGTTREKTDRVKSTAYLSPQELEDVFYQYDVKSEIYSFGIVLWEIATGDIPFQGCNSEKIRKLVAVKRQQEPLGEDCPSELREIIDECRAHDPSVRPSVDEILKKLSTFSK
# PROTOCOL DETAILS: KINOMEscan binding assay, human MLKL (full length)
# CONDITION DETAILS: hMLKL, Table 25; read-out: MLKL (KD)
pKd: −log10 of the molar value.
METRIC NAME: pKd

The recorded pKd for Cn1nc(-c2ccc(NS(=O)(=O)C(F)F)c(F)c2)c2c(N)ncc(-c3cnn(C4CCN(C(=O)CCC5CCN(c6cccc7c6C(=O)N(C6CCC(=O)NC6=O)C7=O)CC5)CC4)c3)c21 (stereo not shown) [Compound 1113] is > 8.00

Consider C[C@H](Oc1cc(-c2nn(C)c3c(-c4cnn(C5CCN(C(=O)CCC6CCN(c7cccc8c7C(=O)N(C7CCC(=O)NC7=O)C8=O)CC6)CC5)c4)cnc(N)c23)ccc1NS(=O)(=O)C(F)F)c1ccc(F)cc1 (stereo partly shown) [Compound 1043] . Its measured pKd is 6.00 to 8.00

The measured pKd associated with Cc1ncsc1-c1ccc(CNC(=O)[C@@H]2C[C@@H](O)CN2C(=O)[C@@H](NC(=O)C2(F)CC2)C(C)(C)C)c(OCCCCCCCCCn2cc(-c3cnc(N)c4c(-c5ccc(NS(=O)(=O)C(F)F)c(O[C@@H](C)c6ccc(F)cc6)c5)nn(C)c34)cn2)c1 [Compound 1138] reads 6.00 to 8.00

---
Record CCS(=O)(=O)Nc1ccc(-c2n[nH]c3c(-c4cnn(CCC(=O)N[C@H](C(=O)N5C[C@H](O)C[C@H]5C(=O)NCc5ccc(-c6scnc6C)cc5)C(C)(C)C)c4)cnc(N)c23)cc1OCc1ccc(F)cc1 [Compound 1001] , field pKd: > 8.00
